viability, T/C reference
- Test system: 377384-186-R-J1-PDC complex spheroid viability;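 also: luminescence signal used as a stand-in for viable cells; spheroids exposed to agents for 7 days before reading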
- procedure-summary: Anticancer human tumor 377384-186-R-J1-PDC patient-derived pancreatic carcinoma cell line growth inhibition [CLK]
- condition-context: second compound 3.16 µM; first compound 10 µM; active compounds read low
endpoint-label: viability, T/C (%)

INSERT INTO results (compound, meas_value) VALUES
  ('CCCS(=O)(=O)Nc1ccc(F)c(C(=O)c2c[nH]c3ncc(-c4ccc(Cl)cc4)cc23)c1F + CN1CCN(c2cc(C(=O)Nc3cc4cc(-c5cnn(C)c5)ccc4cn3)ccn2)CC1', 0.48),
  ('C=CC(=O)N1CCN(c2nc(=O)n(-c3c(C)ccnc3C(C)C)c3nc(-c4c(O)cccc4F)c(F)cc23)C(C)C1 (stereo not drawn) + CNC(=O)c1ccc(Nc2nc(OC3CCCC3)c3c(-c4ccc5nc(C)oc5c4)c[nH]c3n2)c(OC)c1', 23.1),
  ('CC(Nc1ccc2c(c1)OCCn1cc(N3C(=O)OCC3C(F)F)nc1-2)C(N)=O (stereo not drawn) + CNC(=O)c1ccc(Nc2nc(OC3CCCC3)c3c(-c4ccc5nc(C)oc5c4)c[nH]c3n2)c(OC)c1', 11.8);
